protocol_details: Toxicity liver stage against HepG2, at 10uM
Format: cell-based
Set-up: test concentration 10 uM, cell line HepG2-A16-CD81EGFP
condition_description: human, HepG2-A16-CD81EGFP cells; read-out: INHIBITION
value_kind: cytotoxicity at 10 µM
Write your answer as a measured quantity: the number, then the unit.

molecule	value_kind	value_reported
O=C1COC2(CCN(Cc3ccco3)CC2)CN1CCn1cccn1	cytotoxicity at 10 µM	10.2%
Cc1cc(NCCN)nc2ccccc12	cytotoxicity at 10 µM	2.09%
c1ccc(OC[C@@H]2CCC[C@@]23CNCCO3)nc1	cytotoxicity at 10 µM	9.93%

Lookup: For the molecule shown here, COc1ccccc1CNC(=O)C(C)N1CC(n2nc(C)cc2C)C1 (stereo unspecified) , give the reported cytotoxicity at 10 µM.
Found: 7.54%

Lookup: For the molecule shown here, "Cc1ccc(OCCN2CCC(c3ccnn3CCO)CC2)cc1" , give the reported cytotoxicity at 10 µM.
Found: -3.29%

Lookup: For the molecule shown here, c1cnc(N2CCCC3(COCCN(c4nncs4)C3)C2)cn1 (stereo unspecified) , give the reported cytotoxicity at 10 µM.
Found: 1.77%

###

In this section, each of the compounds is paired with its reported cytotoxicity at 10 µM.
protocol_details: Toxicity liver stage against HepG2, at 10uM
Format: cell-based
Design: test concentration 10 uM, cell line HepG2-A16-CD81EGFP
condition_description: human, HepG2-A16-CD81EGFP cells; read-out: INHIBITION
Write down the numeric answer in % and omit the unit.

compound	unit_annotation	value_reported
COc1cccc(CC(C)NC(=O)NCCc2cccnc2)c1 (stereo unspecified)	%	-11

Lookup: For the compound shown here, "COC(=O)CN(C(=O)c1ccc(-n2ccnc2)cc1)C1CCCC1" , give the reported cytotoxicity at 10 µM.
Found: -7.28

Lookup: For the compound shown here, "Cc1cc(-c2cnn(CCNC(=O)Cc3ccccn3)c2C2CC2)on1" , give the reported cytotoxicity at 10 µM.
Found: 2.8

Lookup: For the compound shown here, COc1cccc(CC(=O)NCc2cnc(C)nc2C2CCCN2C)c1 (stereo unspecified) , give the reported cytotoxicity at 10 µM.
Found: -7.47

Lookup: For the compound shown here, "CC(C)(O)CN1CCC(=O)N(Cc2ccco2)Cc2cc(F)ccc21" , give the reported cytotoxicity at 10 µM.
Found: -3.66

Lookup: For the compound shown here, CCc1nc(C2CCCN2CC(=O)Nc2nnc(C)s2)no1 (stereo unspecified) , give the reported cytotoxicity at 10 µM.
Found: -1.73

###

In this section, each of the compounds is paired with its reported cytotoxicity at 10 µM.
protocol_details: Toxicity liver stage against HepG2, at 10uM
Assay type: cell-based
Design: test concentration 10 uM, cell line HepG2-A16-CD81EGFP
condition_description: human, HepG2-A16-CD81EGFP cells; read-out: INHIBITION
Write down the numeric answer in % and omit the unit.

Here's what some known entries look like.
compound	unit_annotation	cytotoxicity at 10 µM
N#Cc1cc(F)c(NCc2ccc(F)cc2)c(F)c1	%	-57
CCc1cc2cc(OC)c(OC)cc2nc1SCCN1CCCCC1	%	-4.82
COc1cc(C#N)ccc1OCCN1CCC(n2ccnc2)CC1	%	2.75
Cc1nc2ncnn2c(C)c1CCC(=O)Nc1cccn(C)c1=O	%	-9.59
CCC/C=C/c1ccc(CN2CCCC2)cn1	%	-16.1
CCN1CCCC(c2c(-c3ccccc3)ncn2CC(N)=O)C1 (configuration not stated)	%	-15.4
COC(=O)c1ccc(-c2cc(C(F)(F)F)cc(N(C)C)n2)cc1	%	-0.409
COc1cc(C2(C(=O)NC3CCC4(CC3)OCCO4)CC2)ccc1C	%	-13.2
CC(C)=Cc1c(-c2ccccc2)ncn1CCS(C)(=O)=O	%	-3.15
CCc1ccc(CNC(=O)N2CCN(Cc3cc(C)on3)CC2)s1	%	-7.03

Lookup: For the compound shown here, CC(=O)N1CCCC(c2nc(-c3ccccc3)c[nH]2)C1 (configuration not stated) , give the reported cytotoxicity at 10 µM.
Found: 6.48

Lookup: For the compound shown here, "Cc1cc2nc(CN(C)c3ccccc3)cc(=O)n2o1" , give the reported cytotoxicity at 10 µM.
Found: 0.719

###

protocol_details: Toxicity liver stage against HepG2, at 10uM
Format: cell-based
Design: test concentration 10 uM, cell line HepG2-A16-CD81EGFP
condition_description: human, HepG2-A16-CD81EGFP cells; read-out: INHIBITION
value_kind: cytotoxicity at 10 µM (%)
Write down the numeric answer in % and omit the unit.

molecule	unit_annotation	cytotoxicity at 10 µM
c1cncc(OC[C@@]23CCC[C@@H]2CN(C2CCOCC2)C3)c1	%	-0.0916
Cc1ccc(N(C)[C@@H]2CC[C@@H]3CN(C(=O)CC4CCOCC4)C[C@@H]32)nn1	%	-1.79

Lookup: For the molecule shown here, Cc1nn(C)c(N(C)C)c1CNC(C)COc1ccc(F)cc1F (stereo unspecified) , give the reported cytotoxicity at 10 µM.
Found: -9.78

Lookup: For the molecule shown here, "Cc1ccc(Cl)cc1NC(=O)Nc1c[nH]c(=O)[nH]c1=O" , give the reported cytotoxicity at 10 µM.
Found: -7.58

Lookup: For the molecule shown here, "O=C(NCc1cccnc1N1CCCCC1)c1ccc2[nH]nnc2c1" , give the reported cytotoxicity at 10 µM.
Found: -1.19

###

protocol_details: Toxicity liver stage against HepG2, at 10uM
Type: cell-based
Set-up: test concentration 10 uM, cell line HepG2-A16-CD81EGFP
condition_description: human, HepG2-A16-CD81EGFP cells; read-out: INHIBITION
value_kind: cytotoxicity at 10 µM (%)
Write down the numeric answer in % and omit the unit.

Here's what some known entries look like.
compound	cytotoxicity at 10 µM, %
CS(=O)(=O)NC1CCN(C(=O)c2cc3ccccc3s2)C1 (centres undefined)	6.65
CC(C)N(CCS(C)(=O)=O)Cc1csc(-c2ccccc2F)n1	-49.3
O=C(Cc1c[nH]c2ccccc12)N1CCC(Nc2cccnc2)CC1	-26.6

Lookup: For the compound shown here, "Cc1sc(C(=O)N(C)S(C)(=O)=O)cc1-c1ccc(F)cc1" , give the reported cytotoxicity at 10 µM.
Found: 0.269

Lookup: For the compound shown here, "CC(C)c1ccc(O)c(C(=O)NCc2nncn2C)c1" , give the reported cytotoxicity at 10 µM.
Found: -3

Lookup: For the compound shown here, "O[C@H]1[C@H](n2cc(-c3ccccc3)nn2)c2ccccc2C12CCNCC2" , give the reported cytotoxicity at 10 µM.
Found: 7.62

Lookup: For the compound shown here, COCC(=O)N1CCCC1c1cccc(Nc2ncc(C)s2)n1 (centres undefined) , give the reported cytotoxicity at 10 µM.
Found: -17

Lookup: For the compound shown here, "Cc1cc(=O)n2nc(-c3cccs3)nc2n1CC(=O)NC(C)C" , give the reported cytotoxicity at 10 µM.
Found: 12.7

Lookup: For the compound shown here, "CCOc1cc(NC(=O)NCCn2cnnc2CC)ccc1C" , give the reported cytotoxicity at 10 µM.
Found: -7.37

Lookup: For the compound shown here, "O=C(c1cc(COc2ccc3c(c2)OCO3)[nH]n1)N1CCCC1" , give the reported cytotoxicity at 10 µM.
Found: -0.526

Lookup: For the compound shown here, "COc1ccc(Cc2ncc3c(n2)CN(C(=O)CCO)C3)cc1" , give the reported cytotoxicity at 10 µM.
Found: 2.37

Lookup: For the compound shown here, "O=C1CCCN1Cc1ncn2c1CN(C(=O)Cc1cccs1)CCC2" , give the reported cytotoxicity at 10 µM.
Found: 5.26

Lookup: For the compound shown here, CCC1COCCN1C(=O)CNC(=O)c1ccsc1 (centres undefined) , give the reported cytotoxicity at 10 µM.
Found: 4.53

###

protocol_details: Toxicity liver stage against HepG2, at 10uM
Type: cell-based
Set-up: test concentration 10 uM, cell line HepG2-A16-CD81EGFP
condition_description: human, HepG2-A16-CD81EGFP cells; read-out: INHIBITION
In this section, each of the compounds is paired with its reported cytotoxicity at 10 µM.
Write down the numeric answer in % and omit the unit.

Here's what some known entries look like.
compound	unit_annotation	cytotoxicity at 10 µM
Cc1ccc(CN2CC[C@@H]3[C@@H](CO[C@H]3CN3CCN(C)CC3)C2)cc1	%	-2.74
COCC1CN(Cc2ccccn2)Cc2cn(C)nc21 (stereo unspecified)	%	-78.6

Lookup: For the compound shown here, "COCCCNC(=O)NCc1nc(C)c(C)o1" , give the reported cytotoxicity at 10 µM.
Found: 10.1

Lookup: For the compound shown here, "O=C(N1CCOCC1)[C@@]12CCO[C@@H]1CCN(C1CCCC1)C2" , give the reported cytotoxicity at 10 µM.
Found: 7.83

Lookup: For the compound shown here, "CC(C)CC(=O)Nc1ccc2c(c1)ncn2CC(=O)NCCN(C)C" , give the reported cytotoxicity at 10 µM.
Found: -7.58

Lookup: For the compound shown here, COC(=O)c1ccc(S(=O)(=O)NCC(O)c2sccc2C)cc1 (stereo unspecified) , give the reported cytotoxicity at 10 µM.
Found: 2.16

Lookup: For the compound shown here, Cc1nc(C)n(C2CCCN(C(=O)Cc3cn4ccccc4n3)C2)n1 (stereo unspecified) , give the reported cytotoxicity at 10 µM.
Found: -18.3

Lookup: For the compound shown here, "Cc1ccc(Cn2nc(C)c3c(C(=O)O)c(Cl)c(C4CC4)nc32)cc1" , give the reported cytotoxicity at 10 µM.
Found: 6.75

Lookup: For the compound shown here, Cc1ccc(C)c(OCCN(C)C(=O)C2CCCN2C(N)=O)c1C (stereo unspecified) , give the reported cytotoxicity at 10 µM.
Found: -1.01

Lookup: For the compound shown here, O=C(C1CC1)N1CCCCCC1C1CCN(c2ncccn2)CC1 (stereo unspecified) , give the reported cytotoxicity at 10 µM.
Found: -9.56

Lookup: For the compound shown here, CCn1nc(C)c(CCNC(=O)C2CCCN(C3CCCC3)C2)c1C (stereo unspecified) , give the reported cytotoxicity at 10 µM.
Found: -9.34
